target system: PI4KB (Homo sapiens (Human))
Sequence (Q9UBF8 whole entry): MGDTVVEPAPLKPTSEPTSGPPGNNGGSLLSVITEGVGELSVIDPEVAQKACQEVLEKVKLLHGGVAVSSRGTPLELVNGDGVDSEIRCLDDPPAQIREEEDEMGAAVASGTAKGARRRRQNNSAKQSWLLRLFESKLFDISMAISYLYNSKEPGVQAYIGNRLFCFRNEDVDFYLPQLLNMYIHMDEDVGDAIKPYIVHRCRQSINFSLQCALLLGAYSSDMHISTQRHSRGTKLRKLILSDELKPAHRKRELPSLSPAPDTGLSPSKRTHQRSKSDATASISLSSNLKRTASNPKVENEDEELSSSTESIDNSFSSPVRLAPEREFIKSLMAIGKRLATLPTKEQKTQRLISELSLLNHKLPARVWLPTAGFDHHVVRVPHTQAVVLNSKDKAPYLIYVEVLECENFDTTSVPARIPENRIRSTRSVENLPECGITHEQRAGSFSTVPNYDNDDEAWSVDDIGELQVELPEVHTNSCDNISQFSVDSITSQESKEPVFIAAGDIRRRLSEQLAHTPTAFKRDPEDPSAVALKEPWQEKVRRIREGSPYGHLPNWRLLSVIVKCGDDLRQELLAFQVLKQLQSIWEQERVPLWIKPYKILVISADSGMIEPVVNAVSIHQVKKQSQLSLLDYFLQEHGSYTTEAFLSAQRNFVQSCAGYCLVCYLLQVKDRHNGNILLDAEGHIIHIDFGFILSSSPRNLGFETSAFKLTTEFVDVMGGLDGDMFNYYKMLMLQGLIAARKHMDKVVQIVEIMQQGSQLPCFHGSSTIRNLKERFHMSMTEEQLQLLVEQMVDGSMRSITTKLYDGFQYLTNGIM
test: KiNativ assay
Type: binding
cond: H929 live cell, read-out: inhibition (10 μM)
Provide the recorded inhibition at 10 µM for the entries that follow.
Output should be the measured figure followed by the unit it is expressed in.

Challenge: Give inhibition at 10 µM only, for COc1cc(NS(=O)(=O)C2CC2)ccc1-c1cnc(N)c(-c2ccc3c(c2)CCNC3=O)c1 , using PI4KB (Homo sapiens (Human)) data.
Response given: 0%

Challenge: Give inhibition at 10 µM only, for CN(C1CC1)S(=O)(=O)c1ccc(-c2cnc(N)c(-c3ccc4c(c3)CCNC4=O)c2)c(F)c1 , using PI4KB (Homo sapiens (Human)) data.
Response given: 16.7%

Challenge: Give inhibition at 10 µM only, for Nc1ncc(-c2ccc(NS(=O)(=O)C3CC3)cc2OC2CCCCC2)cc1-c1ccc2c(c1)CCNC2=O , using PI4KB (Homo sapiens (Human)) data.
Response given: 8.6%

Challenge: Give inhibition at 10 µM only, for Nc1ncc(-c2ccc(NS(=O)(=O)C3CC3)cc2F)cc1-c1ccc2c(c1)CCNC2=O , using PI4KB (Homo sapiens (Human)) data.
Response given: 13%

Challenge: Give inhibition at 10 µM only, for Nc1ncc(-c2cccc3ncsc23)cc1-c1ccc2c(c1)CCNC2=O , using PI4KB (Homo sapiens (Human)) data.
Response given: 34.8%

Challenge: Give inhibition at 10 µM only, for Nc1ncc(-c2cccc([N+](=O)[O-])c2F)cc1-c1ccc2c(c1)CCNC2=O , using PI4KB (Homo sapiens (Human)) data.
Response given: -13.8%
